system: KRAS G12V (Homo sapiens, UniProt P01116, G12V)
Sequence (P01116 1-188 isoform P01116-2 G12V): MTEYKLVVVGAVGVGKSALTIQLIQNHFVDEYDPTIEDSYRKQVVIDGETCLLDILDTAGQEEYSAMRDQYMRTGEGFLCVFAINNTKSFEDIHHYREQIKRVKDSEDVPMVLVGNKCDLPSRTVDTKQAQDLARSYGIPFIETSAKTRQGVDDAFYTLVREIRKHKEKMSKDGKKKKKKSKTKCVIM
procedure.details: GDP-GTP exchange assay (bodipy-GDP/GppNHp, SOS1), KRAS G12V
Format: biochemical
conditions.used: KRAS G12V mutant; value for the most potent isomer quoted for certain compounds; read-out: G12V (KRAS G12V exchange assay IC50)
pIC50: −log10 of the molar value.
observation.type: pIC50

Examples with their reported pIC50 follow.
compound | system | pIC50
Cc1nc2c(F)c(-c3cccc(Cl)c3Cl)c(CCC#N)cc2c2c1cc([C@H]1C[C@H](Oc3cccc(C(=O)N4CCOCC4)c3)CN1C(=O)C1CC1)n2[C@H]1[C@H]2CN[C@@H]1C2 [Example 222] | KRAS G12V (Homo sapiens, UniProt P01116, G12V) | ≥ 7.00
Cc1nc2c(F)c(-c3cccc(Cl)c3Cl)c(CCC#N)cc2c2c1cc([C@H]1C[C@H](n3cc(C4(C)CCCC4)nn3)CN1C(=O)C1CC1)n2[C@H]1[C@H]2CN[C@@H]1C2 [Example 386] | KRAS G12V (Homo sapiens, UniProt P01116, G12V) | ≥ 7.00
Cc1nc2c(F)c(-c3cccc(Cl)c3Cl)c(CCC#N)cc2c2c1cc([C@H]1C[C@H](Oc3cccc(C#N)c3)[C@@H](C)N1C(=O)C1CC1)n2[C@H]1[C@H]2CN[C@@H]1C2 [Example 213] | KRAS G12V (Homo sapiens, UniProt P01116, G12V) | ≥ 7.00
Cc1nc2c(F)c(-c3cccc(Cl)c3Cl)c(CCC#N)cc2c2c1cc([C@H]1C[C@H](Oc3ccn(C(F)(F)F)n3)CN1C(=O)C1CC1)n2[C@H]1[C@H]2CN[C@@H]1C2 [Example 357] | KRAS G12V (Homo sapiens, UniProt P01116, G12V) | ≥ 7.00

Then there is this compound:
Ask | Consider the compound Cc1csnc1CO[C@H]1C[C@H](c2cc3c(C)nc4c(F)c(-c5cccc(Cl)c5Cl)c(CCC#N)cc4c3n2[C@H]2[C@H]3CN[C@@H]2C3)N(C(=O)C2CC2)[C@@H]1C [Example 232] and give its measured pIC50.
Reply | ≥ 7.00

----------
system: KRAS G12D (Homo sapiens, UniProt P01116, G12D)
Sequence (P01116 1-188 isoform P01116-2 G12D): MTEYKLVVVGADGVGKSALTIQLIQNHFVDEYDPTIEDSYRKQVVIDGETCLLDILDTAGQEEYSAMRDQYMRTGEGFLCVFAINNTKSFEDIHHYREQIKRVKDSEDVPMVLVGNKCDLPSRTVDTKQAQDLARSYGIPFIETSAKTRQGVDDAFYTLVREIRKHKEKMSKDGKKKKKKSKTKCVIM
procedure.details: GDP-GTP exchange assay (bodipy-GDP/GppNHp, SOS1), KRAS G12D
Type: biochemical
conditions.used: bodipy-loaded KRAS G12D 2.5 nM, 4 h pre-incubation; value for the most potent isomer quoted for certain compounds; read-out: G12D (KRAS G12D exchange assay IC50)
pIC50: −log10 of the molar value.
observation.type: pIC50

Examples with their reported pIC50 follow.
molecule | pIC50
Cc1cc(C)cc(O[C@H]2C[C@H](c3cc4c(C)nc5c(F)c(-c6cccc(Cl)c6Cl)c(CCC#N)cc5c4n3[C@H]3[C@H]4CN[C@@H]3C4)N(C(=O)C3CC3)C2)c1 | ≥ 7.00
COc1cnn([C@H]2C[C@H](c3cc4c(C)nc5c(F)c(-c6cccc(Cl)c6Cl)c(CCC#N)cc5c4n3[C@H]3[C@H]4CN[C@@H]3C4)N(C(=O)C3CC3)C2)c1 | ≥ 7.00
Cc1cc(-c2nc3c(F)c(-c4cccc(Cl)c4Cl)c(CCC#N)cc3c3c2cc([C@H]2C[C@H](OCc4c(F)cccc4F)CN2C(=O)C2CC2)n3[C@H]2[C@H]3CN[C@@H]2C3)cc(C)n1 | 5.00 to 5.30
Cc1nc(CO[C@H]2C[C@H](c3cc4c(C)nc5c(F)c(-c6cccc(Cl)c6Cl)c(CCC#N)cc5c4n3[C@H]3[C@H]4CN[C@@H]3C4)N(C(=O)C3(C)CC3)C2)cs1 | ≥ 7.00

Then there is this compound:
Ask | Query pIC50 on KRAS G12D (Homo sapiens, UniProt P01116, G12D) for Cc1nc2c(F)c(-c3cccc(Cl)c3Cl)c(CCC#N)cc2c2c1cc([C@H]1C[C@H](n3cc(C4(C)CC4)nn3)CN1C(=O)C1CC1)n2[C@H]1[C@H]2CN[C@@H]1C2
Reply | ≥ 7.00
